# testParameters: buffer, pH 2
Here the recorded log K is given for each entry.
# answer = number (no unit)

Use the examples below as a reference point.
compound | endpoint | valueMeasured
CC(C)(C)NC[C@H](O)COc1nsnc1N1CCOCC1 | log K | 0.9
CC(C)(C)NC[C@H](O)COc1ccccc1C1CCCC1 | log K | 3.08
C=CCOc1ccccc1OCC(O)CNC(C)C (configuration not stated) | log K | 1.43

Could you share which log K value was measured for CN1CCC[C@H]1c1cccnc1 ?
-0.02

Could you share which log K value was measured for CC(C)NCC(O)COc1cccc2[nH]c3ccccc3c12 (configuration not stated) ?
2.97

Could you share which log K value was measured for O=C1C[C@@H]2OCC=C3CN4CC[C@]56c7ccccc7N1[C@H]5[C@H]2[C@H]3C[C@H]46 ?
1.18

Could you share which log K value was measured for CN1CCc2cccc3c2[C@H]1Cc1ccc(O)c(O)c1-3 ?
2.74

Could you share which log K value was measured for C=CCc1ccccc1OCC(O)CNC(C)C (configuration not stated) ?
2.02

Could you share which log K value was measured for C1COCCN1 ?
-0.27
